Please go through the items and note down their EC50.
Tested on: HBV
assayInfo: HBV-DNA Antiviral Assay Using HepG2.2.15 Cells (extracellular HBV DNA by qPCR)
Type: cell-based, hepatitis B virus (HBV)
conditionsUsed: Hepatitis B virus; HBV DNA inhibition, HepG2.2.15 cells, extracellular HBV DNA by qPCR; read-out: EC50

Here is how some compounds turned out for EC50.
{"compound": "C#CC1(NC(=O)C(=O)c2c(C)c(C(=O)Nc3ccc(F)c(F)c3)n(C)c2C)COC1", "EC50": "1 to 10 nM"}
{"compound": "C#C[C@H](NC(=O)C(=O)c1c(C)c(C(=O)Nc2ccc(F)c(C#N)c2)n(C)c1C)C(C)(C)C [Compound 30a]", "EC50": "< 1 nM"}
{"compound": "C#CCNC(=O)C(=O)c1cc(C(=O)Nc2ccc(F)c(C#N)c2)n(C)c1Cl", "EC50": "100 to 1000 nM"}

compound C#CC(C)(C)NC(=O)C(=O)c1c(C)c(C(=O)Nc2ccc(F)c(C(F)(F)F)c2)n(C)c1C , EC50 observed: < 1 nM

###

Test system: HBV
assayInfo: HBV-DNA Antiviral Assay Using HepG2.2.15 Cells (extracellular HBV DNA by qPCR)
Format: cell-based, hepatitis B virus (HBV)
conditionsUsed: Hepatitis B virus; HBV DNA inhibition, HepG2.2.15 cells, extracellular HBV DNA by qPCR; read-out: EC50
parameter: EC50

Some compounds with recorded EC50:
{"compound": "C#C[C@@H](C)NC(=O)C(=O)c1c(C)c(C(=O)Nc2ccc(F)c(C#N)c2)n(C)c1C [Compound 17a]", "systemTested": "HBV", "parameter": "EC50", "observedValue": "1 to 10 nM"}
{"compound": "C#CC1(NC(=O)C(=O)c2c(Cl)c(C(=O)Nc3ccc(F)c(C#N)c3)n(C)c2C)CC(F)(F)C1 [Compound 52]", "systemTested": "HBV", "parameter": "EC50", "observedValue": "< 1 nM"}
{"compound": "Cc1c(C(=O)C(=O)NC2(C#CC3(O)CC3)COC2)c(C)n(C)c1C(=O)Nc1ccc(F)c(C#N)c1 [Compound 102]", "systemTested": "HBV", "parameter": "EC50", "observedValue": "1 to 10 nM"}
{"compound": "C#C[C@@H](CO)NC(=O)C(=O)c1c(C)c(C(=O)Nc2ccc(F)c(C#N)c2)n(C)c1C (single isomer, unassigned) [Compound 31a]", "systemTested": "HBV", "parameter": "EC50", "observedValue": "1 to 10 nM"}
{"compound": "Cc1c(C(=O)C(=O)NC(C)(C)c2cnn(C)c2)c(C)n(C)c1C(=O)Nc1ccc(F)c(C(F)(F)F)c1 [Compound 98]", "systemTested": "HBV", "parameter": "EC50", "observedValue": "< 1 nM"}

Please look at the items below and tell me EC50 for each one, in order.
1. C#CCNC(=O)C(=O)c1c(C)c(C(=O)Nc2ccc(F)c(C(F)(F)F)c2)n(C)c1C [Compound 1]
2. C#CC1(NC(=O)C(=O)c2c(C)c(C(=O)Nc3ccc(F)c(C(F)F)c3)n(C)c2Cl)CC(F)(F)C1 [Compound 81]
3. C#CCNC(=O)C(=O)c1c(F)c(C(=O)Nc2ccc(F)c(C#N)c2)n(C)c1Br [Compound 20]
4. C#C[C@@H](COC)NC(=O)C(=O)c1c(C)c(C(=O)Nc2ccc(F)c(C#N)c2)n(C)c1C [Compound 28a]
5. C#CCNC(=O)C(=O)c1cn(C)c(C(=O)Nc2ccc(F)c(C#N)c2)c1C [Compound 8]
6. Cc1c(C(=O)C(=O)NC(C)(C)c2nnco2)c(C)n(C)c1C(=O)Nc1ccc(F)c(C(F)(F)F)c1 [Compound 143]
7. C#C[C@](C)(CO)NC(=O)C(=O)c1c(C)c(C(=O)Nc2ccc(F)c(C(F)(F)F)c2)n(C)c1C [Compound 66a]

["1 to 10 nM", "1 to 10 nM", "10 to 100 nM", "1 to 10 nM", "10 to 100 nM", "1 to 10 nM", "< 1 nM"]

###

Tested on: HBV
assayInfo: HBV-DNA Antiviral Assay Using HepG2.2.15 Cells (extracellular HBV DNA by qPCR)
Assay type: cell-based, hepatitis B virus (HBV)
conditionsUsed: Hepatitis B virus; HBV DNA inhibition, HepG2.2.15 cells, extracellular HBV DNA by qPCR; read-out: EC50
pEC50: −log10 of the molar value.
parameter: pEC50

Example molecules with recorded pEC50:
{"molecule": "C#C[C@H](CCO)NC(=O)C(=O)c1c(C)c(C(=O)Nc2ccc(F)c(C#N)c2)n(C)c1C [Compound 61b]", "pEC50": "8.00 to 9.00"}
{"molecule": "Cc1c(C(=O)C(=O)NC(C)(C)c2ccccn2)c(C)n(C)c1C(=O)Nc1ccc(F)c(C#N)c1", "pEC50": "8.00 to 9.00"}
{"molecule": "C=CCNC(=O)C(=O)c1cn(C)c(C(=O)Nc2ccc(F)c(C#N)c2)c1F", "pEC50": "6.00 to 7.00"}
{"molecule": "C#C[C@](C)(NC(=O)C(=O)c1c(C)c(C(=O)Nc2ccc(F)c(C#N)c2)n(C)c1C)C(F)(F)F [Compound 79b]", "pEC50": "8.00 to 9.00"}
{"molecule": "C#CCNC(=O)C(=O)c1c(Cl)c(C(=O)Nc2ccc(F)c(C#N)c2)n(C)c1C", "pEC50": "8.00 to 9.00"}
{"molecule": "Cc1c(C(=O)C(=O)NC(C)(C)c2ncc[nH]2)c(C)n(C)c1C(=O)Nc1ccc(F)c(C(F)(F)F)c1", "pEC50": "8.00 to 9.00"}
{"molecule": "Cc1c(C(=O)C(=O)NCC#CC2CC2)c(C)n(C)c1C(=O)Nc1ccc(F)c(C#N)c1", "pEC50": "8.00 to 9.00"}
{"molecule": "Cc1c(C(=O)C(=O)NC2(C#CCO)COC2)c(C)n(C)c1C(=O)Nc1ccc(F)c(C#N)c1", "pEC50": "7.00 to 8.00"}
{"molecule": "C#CC1(NC(=O)C(=O)c2c(C)c(C(=O)Nc3ccc(F)c(C(F)(F)F)c3)n(C)c2C)CC(F)(F)C1", "pEC50": "> 9.00"}
{"molecule": "C#C[C@@](C)(NC(=O)C(=O)c1c(C)c(C(=O)Nc2ccc(F)c(C#N)c2)n(C)c1C)C(F)(F)F [Compound 79a]", "pEC50": "8.00 to 9.00"}

I need pEC50 for every entry listed below, if you could help.
1. Cc1c(C(=O)C(=O)NC(C)(C)c2ccc[nH]c2=O)c(C)n(C)c1C(=O)Nc1ccc(F)c(C(F)(F)F)c1
2. C#C[C@](C)(CO)NC(=O)C(=O)c1c(C)c(C(=O)Nc2ccc(F)c(C#N)c2)n(C)c1C [Compound 64a]
3. C#CC1(NC(=O)C(=O)c2c(F)c(C(=O)Nc3ccc(F)c(C#N)c3)n(C)c2C)CC(F)(F)C1
4. Cc1c(C(=O)C(=O)NC(C)(C)c2ccncc2)c(C)n(C)c1C(=O)Nc1ccc(F)c(C#N)c1
5. C#CCNC(=O)C(=O)c1c(F)c(C(=O)Nc2ccc(F)c(C#N)c2)n(C)c1C

1. 8.00 to 9.00
2. 8.00 to 9.00
3. > 9.00
4. 8.00 to 9.00
5. 8.00 to 9.00

###

Test system: HBV
assayInfo: HBV-DNA Antiviral Assay Using HepG2.2.15 Cells (extracellular HBV DNA by qPCR)
Type: cell-based, hepatitis B virus (HBV)
conditionsUsed: Hepatitis B virus, HepG2.2.15
parameter: EC50

compound C#CC1(NC(=O)C(=O)c2c(C)c(C(=O)Nc3ccc(F)c(C#N)c3)n(C)c2C)COC1 , EC50 observed: < 1 nM

###

System: HBV
assayInfo: HBV-DNA Antiviral Assay Using HepG2.2.15 Cells (extracellular HBV DNA by qPCR)
Assay type: cell-based, hepatitis B virus (HBV)
conditionsUsed: Hepatitis B virus; HBV DNA inhibition, HepG2.2.15 cells, extracellular HBV DNA by qPCR; read-out: EC50
parameter: EC50

Use the examples below as a reference point.
{"molecule": "Cc1c(C(=O)C(=O)NC(C)(C)c2nccs2)c(C)n(C)c1C(=O)Nc1ccc(F)c(C(F)(F)F)c1 [Compound 103]", "systemTested": "HBV", "EC50": "1 to 10 nM"}
{"molecule": "Cc1c(C(=O)C(=O)NC(C)(C)c2ncc[nH]2)c(C)n(C)c1C(=O)Nc1ccc(F)c(C#N)c1 [Compound 131]", "systemTested": "HBV", "EC50": "1 to 10 nM"}

Go through the items and report each one's EC50.
1. C#C[C@H](C)NC(=O)C(=O)c1c(C)c(C(=O)Nc2ccc(F)c(C#N)c2)n(C)c1C [Compound 17b]
2. C#C[C@@H](NC(=O)C(=O)c1c(C)c(C(=O)Nc2ccc(F)c(C(F)(F)F)c2)n(C)c1C)C1CC1 [Compound 38b]
3. C#C[C@@](CO)(NC(=O)C(=O)c1c(C)c(C(=O)Nc2ccc(F)c(C(F)(F)F)c2)n(C)c1C)C(F)(F)F [Compound 75b]
4. C=CCNC(=O)C(=O)c1c(F)c(C(=O)Nc2ccc(F)c(C#N)c2)n(C)c1C [Compound 18]
5. C#CC1(NC(=O)C(=O)c2c(F)c(C(=O)Nc3ccc(F)c(C#N)c3)n(C)c2C)COC1 [Compound 55]

1: 1 to 10 nM; 2: < 1 nM; 3: 10 to 100 nM; 4: 1 to 10 nM; 5: < 1 nM
